System: RPMI-8226
Protocol: NCI tumour cell line growth inhibition, 48 h
Activity calls are given as the source filed them. No stated cut-off is given here; in the data, active = GI50 up to about 1.1 µM and inactive = higher.
Endpoint Label: GI50

                                   molecule  endpoint_label      observed_value
0  CCC1CCC2C3CC=C4CC(OC(C)=O)C(N)CC4(C)C3CCC12C (stereo not given)            GI50  2.69 µM (inactive)

# input Could you tell me which GI50 is on file for CS(=O)(=O)OCC1CN(S(C)(=O)=O)c2cc(O)ccc21 (stereo not given) ?
# output 1.87 µM (inactive)

# input GI50 for Cc1ccccc1N1C(=O)C2C=CC(n3[nH]c(=O)n(Cc4ccccc4)c3=O)CC2C1=O (stereo not given) ?
# output > 100 µM (inactive)

# input I have this molecule here, NC(Cc1ccnnc1)C(=O)O (stereo not given) , and I need its recorded GI50.
# output > 100 µM (inactive)

---

System: IGROV-1
Protocol: NCI tumour cell line growth inhibition, 48 h
Calls of active or inactive are those of the source. Rule as the data show it: active = GI50 up to about 1.1 µM and inactive = higher.
Endpoint Label: GI50

Compound	Assay Target	GI50
O=C(O)c1oc(C(=O)O)c(C(=O)O)c1C(=O)O	IGROV-1	> 100 µM (inactive)
COc1ccc(/N=N/C(=N/NC(=O)c2cc(Cl)ccc2C(=O)c2ccccc2)c2ccc(N(CCC#N)CCC#N)cc2C)cc1	IGROV-1	6.49 µM (inactive)

# input Param item = COc1ccc(C2C3C(=O)C=CC(=O)C3[C@@H]2C)cc1OC (some centres undefined) ; retrieve measured GI50.
# output > 100 µM (inactive)

# input What does the data say about its GI50? Entry: `Cc1nc2ccc(S(=O)(=O)Nc3nccs3)cc2c(=O)n1NS(=O)(=O)c1nccs1`
# output > 100 µM (inactive)

# input // lookup GI50 for `CN(C)CCCNc1c2ccccc2[n+]([O-])c2ccccc12`
# output 37.3 µM (inactive)

# input I would be grateful if you could share the reported GI50 for CC(C)(O)C1CC[C@]2(C)CC[C@]3(C)[C@H](CC[C@@H]4[C@@]5(C)CC[C@H](O)C(C)(C)[C@@H]5CC[C@]43C)[C@@H]12 (some centres undefined) .
# output 33.3 µM (inactive)

# input Given COC(=O)/C(=N/Nc1cccc(Cl)c1)C(C(=O)C(=O)Nc1cccc(Cl)c1C)c1nc2ccccc2nc1C (centres undefined) , state its recorded GI50.
# output 41.7 µM (inactive)

# input compound: O=C1C(=O)N(c2ccc(Cl)cc2)C(=O)/C(=N/c2cccc3c(=O)[nH][nH]c(=O)c23)C1c1nc2ccccc2o1 (centres undefined) ; wanted: its GI50
# output > 100 µM (inactive)

# input # get_value(readout='GI50', item= `CC1=NN2C(=N)/C(=C/c3ccc(F)cc3)C(=O)N=C2S1` )
# output > 100 µM (inactive)

---

Tested on: DMS-114
Protocol: NCI tumour cell line growth inhibition, 48 h
Calls of active or inactive are those of the source. Rule as the data show it: active = GI50 up to about 1.1 µM and inactive = higher.
Endpoint Label: GI50

See these solved cases before continuing.
>>> df
                                   compound  assay_target      observed_value
0  S=P1(N2CCCCC2)Oc2ccc3ccccc3c2-c2c(ccc3ccccc23)O1       DMS-114  > 83 µM (inactive)
1    CCCCc1c2cnccc2c(CCCC)c2c1[nH]c1ccccc12       DMS-114  3.99 µM (inactive)

# input Quick one: GI50 for NC(C(=O)O)c1ccc(C(=O)O)cc1 (stereo unspecified) ?
# output > 100 µM (inactive)

# input Look at this compound and give its reported GI50. `O=C1C=Cc2noc3cccc1c23`
# output 2.07 µM (inactive)

# input Any idea what GI50 was measured for O=C1CCC2COc3ccc(O)c1c32 (stereo unspecified) ?
# output > 100 µM (inactive)

# input Any idea what GI50 was measured for CN(C)CC(/C(Cc1ccccc1)=N\NC(=O)c1ccncc1)c1ccccc1 (stereo unspecified) ?
# output 22.5 µM (inactive)
